tested on: T47D (PI3Kα-H1047R) cell line; experiment: HTRF phospho-AKT(S473) cell assay in T47D cells; format: cell-based, human; conditions: Homo sapiens; HTRF phospho-AKT(S473), T47D (PI3Kα-H1047R) cells, 2 hours compound incubation
Recorded metric: IC50

Example results:
Molecule: Cc1cc([C@@H](C)Nc2ccc(Cl)nc2C(=O)NS(C)(=O)=O)c2nc(N3C[C@@H]4C[C@H]3CN4c3cnc(C)nc3)n(C)c(=O)c2c1
Target system: T47D (PI3Kα-H1047R) cell line
IC50: 500 to 1000 nM
--
Molecule: Cc1cc([C@@H](C)Nc2ccc(Cl)nc2C(=O)NS(C)(=O)=O)c2nc(N3CCN(c4cc(C)nc(C)n4)CC3)n(C)c(=O)c2c1
Target system: T47D (PI3Kα-H1047R) cell line
IC50: 250 to 500 nM
--
Molecule: Cc1cc([C@@H](C)Nc2ccc(Cl)nc2C(=O)NS(C)(=O)=O)c2nc(N3CCc4nn(C(F)F)cc4C3)n(C)c(=O)c2c1
Target system: T47D (PI3Kα-H1047R) cell line
IC50: < 250 nM

Asked: Identify IC50 associated with the molecule Cc1cc([C@@H](C)Nc2ccc(Cl)nc2C(=O)NS(C)(=O)=O)c2nc(N3C[C@H]4C[C@@H]3C[C@H]4c3nn(C)cc3F)n(C)c(=O)c2c1
Given back: 250 to 500 nM

Asked: Identify IC50 associated with the molecule Cc1cnc([C@@H]2CCCN(c3nc4c([C@@H](C)Nc5ccc(Cl)nc5C(=O)NS(C)(=O)=O)cc(C)cc4c(=O)n3C)C2)nc1 (relative stereo)
Given back: 250 to 500 nM

Asked: Identify IC50 associated with the molecule Cc1cc([C@@H](C)Nc2ccc(Cl)nc2C(=O)NS(C)(=O)=O)c2nc(N3CCC[C@@H](c4cnc(C)nc4)C3)n(C)c(=O)c2c1 (relative stereo)
Given back: 500 to 1000 nM
